Test: AUC (0 to infinity) in Sprague-Dawley rat at 1 mg/kg, iv by LC-MS/MS analysis
Format: ADME, organism-based
Parameters: dose 1 mg/kg, time infinity, route intravenous
Settings: in vivo
property-name: AUC(0-inf) (ng·h/mL)
The reply should contain only the number, in ng·h/mL.

Task: Look up AUC(0-inf) for this compound: CN1CCN(Cc2ccc(NC(=O)CCSc3ccc4c(/C=C/c5ccccn5)n[nH]c4c3)cc2C(F)(F)F)CC1
Output: 202

* * *

Test: Cmax in Sprague-Dawley rat at 1 mg/kg, iv by LC-MS/MS analysis
Format: ADME, organism-based
Parameters: dose 1 mg/kg, route intravenous
Conditions: in vivo
property-name: Cmax (ng/mL)
The reply should contain only the number, in ng/mL.

Task: Look up Cmax for this compound: CN1CCN(Cc2ccc(NC(=O)CCSc3ccc4c(/C=C/c5ccccn5)n[nH]c4c3)cc2C(F)(F)F)CC1
Output: 1270

* * *

Test: Apparent clearance during terminal phase in mouse at 10 mg/kg, po by LC-MS/MS analysis
Assay type: ADME, organism-based
Conditions: in vivo, read-out: CLz/F (converted)
property-name: CL/F (mL/min/kg)
The reply should contain only the number, in mL/min/kg.

Task: Look up CL/F for this molecule: CN1CCN(Cc2ccc(NC(=O)CCSc3ccc4c(/C=C/c5ccccn5)n[nH]c4c3)cc2C(F)(F)F)CC1
Output: 723

* * *

Assay: Apparent volume of distribution during terminal phase in mouse at 1 mg/kg, iv by LC-MS/MS analysis
Assay type: ADME, organism-based
Conditions: in vivo, read-out: Vz
property-name: Vd (L/kg)
The reply should contain only the number, in L/kg.

Task: Look up Vd for this compound: CN1CCN(Cc2ccc(NC(=O)CCSc3ccc4c(/C=C/c5ccccn5)n[nH]c4c3)cc2C(F)(F)F)CC1
Output: 45.3

* * *

System: Bcr/Abl fusion protein (Homo sapiens), P00519+P11274 [T315I]
Settings: BaF3
property-name: GI50 (nM)
The reply should contain only the number, in nM.

smiles-code: CN1CCN(c2cccc(NC(=O)CCSc3ccc4c(/C=C/c5ccccn5)n[nH]c4c3)c2)CC1
GI50 (nM): 8180

smiles-code: O=C(CCSc1ccc2c(/C=C/c3ccccn3)n[nH]c2c1)Nc1ccc(Cl)c(C(F)(F)F)c1
GI50 (nM): 2670

smiles-code: CCN1CCN(Cc2ccc(NC(=O)CCSc3ccc4c(/C=C/c5ccccn5)n[nH]c4c3)cc2C(F)(F)F)CC1
GI50 (nM): 4

Task: Look up GI50 for this compound: Cc1cccc(NC(=O)CCSc2ccc3c(/C=C/c4ccccn4)n[nH]c3c2)c1
Output: 4030

Task: Look up GI50 for this compound: CN1CCN(Cc2ccc(NC(=O)CCSc3ccc4c(-c5cnn(C)c5)n[nH]c4c3)cc2C(F)(F)F)CC1
Output: 20

Task: Look up GI50 for this compound: Cc1ccc(NC(=O)CCSc2ccc3c(/C=C/c4ccccn4)n[nH]c3c2)cc1
Output: 4490

Task: Look up GI50 for this compound: Cc1n[nH]c2cc(SCCC(=O)Nc3ccc(CN4CCN(C)CC4)c(C(F)(F)F)c3)ccc12
Output: 170

Task: Look up GI50 for this compound: CN(C)c1cccc(NC(=O)CCSc2ccc3c(/C=C/c4ccccn4)n[nH]c3c2)c1
Output: 5520

Task: Look up GI50 for this compound: O=C(NCCSc1ccc2c(/C=C/c3ccccn3)n[nH]c2c1)c1cccc(C(F)(F)F)c1
Output: 1620

Task: Look up GI50 for this compound: CN1CCN(Cc2ccc(C(=O)NCCCSc3ccc4c(/C=C/c5ccccn5)n[nH]c4c3)cc2C(F)(F)F)CC1
Output: 330

Task: Look up GI50 for this compound: COc1ccc(NC(=O)CCSc2ccc3c(/C=C/c4ccccn4)n[nH]c3c2)cc1C(F)(F)F
Output: 860

Task: Look up GI50 for this compound: O=C(CCSc1ccc2c(/C=C/c3ccccn3)n[nH]c2c1)Nc1cccc(Cl)c1
Output: 2910

Task: Look up GI50 for this compound: Cc1ccc(-c2n[nH]c3cc(SCCC(=O)Nc4ccc(CN5CCN(C)CC5)c(C(F)(F)F)c4)ccc23)cn1
Output: 49

Task: Look up GI50 for this compound: CC1CCN(Cc2ccc(NC(=O)CCSc3ccc4c(/C=C/c5ccccn5)n[nH]c4c3)cc2C(F)(F)F)CC1
Output: 1750

Task: Look up GI50 for this compound: O=C(CCSc1ccc2c(/C=C/c3ccccn3)n[nH]c2c1)Nc1ccc(CN2CCOCC2)c(C(F)(F)F)c1
Output: 210

Task: Look up GI50 for this compound: CN1CCN(Cc2ccc(NC(=O)CCSc3ccc4c(/C=C/c5ccccn5)n[nH]c4c3)cc2C(F)(F)F)CC1
Output: 6

Task: Look up GI50 for this compound: O=C(CCSc1ccc2c(/C=C/c3ccccn3)n[nH]c2c1)NCc1cccc(C(F)(F)F)c1
Output: 7050

Task: Look up GI50 for this compound: O=C(CCSc1ccc2c(/C=C/c3ccccn3)n[nH]c2c1)Nc1ccc(F)c(C(F)(F)F)c1
Output: 120

Task: Look up GI50 for this compound: O=C(NCCCSc1ccc2c(/C=C/c3ccccn3)n[nH]c2c1)c1cccc(C(F)(F)F)c1
Output: 650

Task: Look up GI50 for this compound: O=C(CCSc1ccc2c(/C=C/c3ccccn3)n[nH]c2c1)Nc1ccc(CN2CCCC2)c(C(F)(F)F)c1
Output: 120

Task: Look up GI50 for this compound: CN(C)CCN(C)Cc1ccc(NC(=O)CCSc2ccc3c(/C=C/c4ccccn4)n[nH]c3c2)cc1C(F)(F)F
Output: 110
